The measured values listed here are drawn from the RNAGym collection of RNA variant scans (doi:10.1038/nmeth.2970).

B1: NELF-E aptamer (parent)
chain: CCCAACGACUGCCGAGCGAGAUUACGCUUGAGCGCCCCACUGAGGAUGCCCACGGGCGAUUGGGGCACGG

# Variants of: B1
# Assay text: HiTS-RAP
# Assay setup: with NELF-E (Drosophila)
Label Met when Kd < 7 nM; otherwise Not met.

Reference set, count: 5
{"Variant id": "U41G A67G", "Label value": "Met"}
{"Variant id": "A5C U41G", "Label value": "Not met"}
{"Variant id": "C9G U28C", "Label value": "Not met"}
{"Variant id": "A31G U41G", "Label value": "Met"}
{"Variant id": "G7U G30A", "Label value": "Met"}

Query :: Take the variant A5U A8U and say whether its Kd is less than 7 nM.
Result :: Met

Query :: For this variant, is Kd lower than 7 nM? C9G G48A
Result :: Not met

Query :: Quick check: does C13G C53G have Kd under 7 nM?
Result :: Not met

Query :: Quick check: does U10G A24U have Kd under 7 nM?
Result :: Met
